- test_summary: Vapor pressure at 25° C. by the Donovan method (gas chromatography)
- Type: physicochemical
readout_label: vapor pressure

compound | readout_label | result
CC=CC1C(C(=O)OCc2c(F)c(F)c(COC)c(F)c2F)C1(C)C (centres unmarked) | vapor pressure | 1.4×10^-5 mm Hg
COCc1c(F)c(F)c(COC(=O)C2C(C=C(C)C)C2(C)C)c(F)c1F (centres unmarked) | vapor pressure | 6.8×10^−6 mm Hg
CC1(C)C(C=C(Cl)Cl)C1C(=O)OCc1c(F)c(F)cc(F)c1F (centres unmarked) | vapor pressure | 2.6×10^−5 mm Hg
CC(C)=CC1C(C(=O)OCc2c(F)c(F)c(C)c(F)c2F)C1(C)C (centres unmarked) | vapor pressure | 3.1×10^−5 mm Hg

Now consider a different compound.
Q: Please give measured vapor pressure of the following entry: CC=CC1C(C(=O)OCc2c(F)c(F)c(C)c(F)c2F)C1(C)C (centres unmarked)
Result: 7.7×10^−5 mm Hg
